Each item that follows carries a reported IC50.
assay: Inhibition of FRbeta (unknown origin) expressed in Chinese hamster D4 cells assessed as cell growth inhibition incubated up to 96 hrs by Celltiter-blue cell viability assay
measuredQuantity: IC50 (nM)

structureSmilesString | unitOfMeasurement | valueQualifier | dataValue
Nc1nc2[nH]c(CCCc3ccc(C(=O)N[C@@H](CCCC(=O)O)C(=O)O)s3)cc2c(=O)[nH]1 | nM | = | 3.6
Nc1nc2[nH]c(CCCc3ccc(C(=O)N[C@@H](CC(=O)O)C(=O)O)s3)cc2c(=O)[nH]1 | nM | = | 347
Nc1nc2[nH]c(CCCc3ccc(C(=O)O)s3)cc2c(=O)[nH]1 | nM | > | 1000
CCC[C@H](NC(=O)c1ccc(CCCc2cc3c(=O)[nH]c(N)nc3[nH]2)s1)C(=O)O | nM | > | 1000
Nc1nc2[nH]c(CCCc3ccc(C(=O)NCCCC(=O)O)s3)cc2c(=O)[nH]1 | nM | > | 1000

* * *

Each item that follows carries a reported IC50.
experiment: Inhibition of FRalpha (unknown origin) expressed in Chinese hamster RT16 cells assessed as cell growth inhibition incubated up to 96 hrs by Celltiter-blue cell viability assay

structureSmilesString | IC50 / nM
Nc1nc2[nH]c(CCCc3ccc(C(=O)N[C@@H](CC(=O)O)C(=O)O)s3)cc2c(=O)[nH]1 | 6.6
CCC[C@H](NC(=O)c1ccc(CCCc2cc3c(=O)[nH]c(N)nc3[nH]2)s1)C(=O)O | 56
Nc1nc2[nH]c(CCCc3ccc(C(=O)O)s3)cc2c(=O)[nH]1 | 661
Nc1nc2[nH]c(CCCc3ccc(C(=O)NCCCC(=O)O)s3)cc2c(=O)[nH]1 | 27
Nc1nc2[nH]c(CCCc3ccc(C(=O)N[C@@H](CCCC(=O)O)C(=O)O)s3)cc2c(=O)[nH]1 | 9.5
